Tgt: D-3-phosphoglycerate dehydrogenase (Homo sapiens, UniProt O43175)
Sequence (O43175 whole entry): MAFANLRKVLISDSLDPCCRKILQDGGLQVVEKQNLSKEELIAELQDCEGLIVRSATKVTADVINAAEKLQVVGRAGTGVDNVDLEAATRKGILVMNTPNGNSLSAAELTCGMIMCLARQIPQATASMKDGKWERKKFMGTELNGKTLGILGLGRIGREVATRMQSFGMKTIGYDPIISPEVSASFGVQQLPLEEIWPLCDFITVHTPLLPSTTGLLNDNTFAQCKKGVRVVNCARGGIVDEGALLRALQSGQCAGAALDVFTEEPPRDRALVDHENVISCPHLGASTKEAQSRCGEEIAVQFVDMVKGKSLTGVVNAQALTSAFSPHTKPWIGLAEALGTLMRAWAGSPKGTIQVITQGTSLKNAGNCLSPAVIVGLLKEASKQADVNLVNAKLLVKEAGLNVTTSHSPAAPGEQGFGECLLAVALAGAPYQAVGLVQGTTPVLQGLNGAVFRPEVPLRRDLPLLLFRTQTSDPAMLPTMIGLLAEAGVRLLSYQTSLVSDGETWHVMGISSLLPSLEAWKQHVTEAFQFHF
Assay Name: PHGDH SPR Assay
Reported Conditions: pH 7.4; read-out: Kd
For each of the compounds below, state its Kd.
One number for each entry, in µM.

Hi team, please reply with Kd for each item in this list.
1. O=C(O)CSC1=C(SCC(=O)O)C(=O)C(SCC(=O)O)=C(SCC(=O)O)C1=O
2. Cc1c(/N=N/c2cccc(C(=O)O)c2)c(O)[nH]c(=O)c1C#N
3. CCNC(=S)N/N=C\c1ccc(-c2ccc(C(=O)O)c(Cl)c2)o1

*A*
[7.22, 29, 66.9]
